These entries and their values trace back to the RNAGym collection of RNA variant scans (doi:10.1073/pnas.2313332121).

B1: TPR 5TU (parent)
chain: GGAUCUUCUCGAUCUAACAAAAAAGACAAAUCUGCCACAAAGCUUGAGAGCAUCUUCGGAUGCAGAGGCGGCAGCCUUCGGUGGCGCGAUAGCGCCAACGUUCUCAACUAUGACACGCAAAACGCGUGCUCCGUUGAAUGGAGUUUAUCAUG

- Variants of: B1
- ASSAY TEXT: polymerase ribozyme fitness, log enrichment relative to wild type (log ratio); higher = more active; in vitro selection for triplet polymerase activity
Fewer inactive variants are shown than the library holds.
Each item that follows carries a reported polymerase ribozyme fitness (log ratio).

MUTATION LABEL	polymerase ribozyme fitness (log ratio)
A40G A115G A137G C149U	-4.02
A3C G50U	-1.07
C5G A39U G59U G68A A98G A115G A137G G143U	≤ -4.2
C87U C96G A113U	-2.85
U4C C85G C99U C125G	-3.5
A30G C43G G83A	≤ -4.2
A89C A150G	-0.921
C14G A17G C27U C96G A122G G141C	≤ -4.2
A12G A29U U44C G50C A91C C93G G94C C116U U144A	≤ -4.2
C76A C96A G128C	≤ -4.2

# query: polymerase ribozyme fitness (log ratio) of entry A21U U135A
-1.24

# iterate: U4C A16G A21G A41C A49U U56A G86A U135A A150G
≤ -4.2

# iterate: A26U C118A
-2.33

# iterate: G25U A89U C96G G100A U102C C118A A119G
≤ -4.2

# iterate: G83U G94U C95A
-1.62
